# System: Cell membrane
# ASSAY EXPLANATION: Induction of cell membrane […] in methicilin-resistant Staphylococcus aureus 21455 assessed as increase in fluorescence intensity at 8 times MIC by SYTOX green dye based fluorescence analysis
# Type: cell membranes
Calls of active or inactive are those of the source. The calls are words filed in the database; no cut-off is given here.
MEASUREMENT KIND: Activity

CC[C@H](C)[C@H](NC(=O)[C@@H](Cc1ccccc1)NC)C(=O)N[C@@H](CCCNC(=N)N)C(=O)N[C@H](CCCNC(=N)N)C(=O)N[C@@H](C(=O)N[C@H](C(=O)N[C@@H](CO)C(=O)N[C@H]1C(=O)N[C@@H](CCCNC(=N)N)C(=O)N[C@@H](C2CCCCC2)C(=O)N[C@@H]([C@@H](C)CC)C(=O)O[C@H]1C)[C@@H](C)CC)[C@@H](C)CC
65.5%
CC[C@H](C)[C@H](NC(=O)[C@@H](Cc1ccccc1)NC)C(=O)N[C@@H](CO)C(=O)N[C@H](CCCNC(=N)N)C(=O)N[C@@H](C(=O)N[C@H](C(=O)N[C@@H](CO)C(=O)N[C@H]1C(=O)N[C@@H](C)C(=O)N[C@@H](C2CCCCC2)C(=O)N[C@@H]([C@@H](C)CC)C(=O)O[C@H]1C)[C@@H](C)CC)[C@@H](C)CC
Active
CC[C@H](C)[C@H](NC(=O)[C@@H](Cc1ccccc1)NC)C(=O)N[C@@H](CCCNC(=N)N)C(=O)N[C@H](CCCNC(=N)N)C(=O)N[C@@H](C(=O)N[C@H](C(=O)N[C@@H](CO)C(=O)N[C@H]1C(=O)N[C@@H](C)C(=O)N[C@@H](C2CCCCC2)C(=O)N[C@@H]([C@@H](C)CC)C(=O)O[C@H]1C)[C@@H](C)CC)[C@@H](C)CC
Active
CC[C@H](C)[C@H](NC(=O)[C@@H](Cc1ccccc1)NC)C(=O)N[C@@H](CO)C(=O)N[C@H](CCC(N)=O)C(=O)N[C@@H](C(=O)N[C@H](C(=O)N[C@@H](CO)C(=O)N[C@H]1C(=O)N[C@@H](C)C(=O)N[C@@H](C2CCCCC2)C(=O)N[C@@H]([C@@H](C)CC)C(=O)O[C@H]1C)[C@@H](C)CC)[C@@H](C)CC
8.8%
